# Target desc: PARD3_3, Q8TEW0
# Sequence (Q8TEW0 582-685): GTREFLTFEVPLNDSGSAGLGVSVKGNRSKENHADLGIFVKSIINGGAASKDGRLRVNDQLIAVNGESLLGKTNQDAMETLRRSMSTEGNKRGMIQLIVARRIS
# Assay explanation: holdup assay
# Set-up: key: below the threshold = too weak to quantify, mostly under pKd 3.1 to 4
# Condition details: plain residues with an end cap or a label only (N-terminal biotin on a linker: ado-ado)
Metric: pKd

Worked examples, 8 binders total:
Binder	Recorded result
DLLGGGSDSI [TNRC6B, Q9UPQ9]	below the threshold
IGHEDLETAV [DGKI, O75912]	3.64
ADEMICITTL [CACNA1D, Q01668]	4.38
VKQYADVEGF [HNRNPK, P61978;P61978-2]	below the threshold
SAGADSETHC [SLCO1B1, Q9Y6L6]	below the threshold
HLSTRQGTCV [ATRNL1, Q5VV63]	below the threshold
QQGLLPHSSC [TYRO3, Q06418]	below the threshold
PKSNSSKEYV [CLDN7, O95471]	below the threshold

Exam item: // lookup pKd for KLQNPNQSVV [TYRP1, P17643]
Marked response: below the threshold
